System: RXRa homodimer (NR concentration 180 nM)
Test: PBM binding z-score (relative to random genomic background probes); higher = stronger binding; sequences stand for … in GC…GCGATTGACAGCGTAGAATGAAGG
Give fulfilled when the value for PBM binding z-score is at least 5. Give not fulfilled when it is less.

>>> print(df.to_string())
                        entry_sequence          group
 0  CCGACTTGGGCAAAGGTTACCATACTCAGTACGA  not fulfilled
 1  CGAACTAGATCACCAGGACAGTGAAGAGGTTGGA  not fulfilled
 2  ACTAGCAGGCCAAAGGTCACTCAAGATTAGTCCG      fulfilled
 3  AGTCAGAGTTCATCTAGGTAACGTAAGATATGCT  not fulfilled
 4  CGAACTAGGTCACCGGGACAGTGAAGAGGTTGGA  not fulfilled
 5  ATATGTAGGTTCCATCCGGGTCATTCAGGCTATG  not fulfilled
 6  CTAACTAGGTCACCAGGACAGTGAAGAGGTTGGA  not fulfilled
 7  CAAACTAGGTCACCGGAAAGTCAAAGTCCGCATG  not fulfilled
 8  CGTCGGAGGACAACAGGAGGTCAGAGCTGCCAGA  not fulfilled
 9  TCTGCTTGGTCAACGATGGTCAGCTAATCTGCTA  not fulfilled
10  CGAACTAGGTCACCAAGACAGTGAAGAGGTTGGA  not fulfilled
11  GCTGCTAGGTCAACTGATGGTCAGCTAGAGCTCG  not fulfilled
12  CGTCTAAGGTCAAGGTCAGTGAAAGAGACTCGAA      fulfilled
13  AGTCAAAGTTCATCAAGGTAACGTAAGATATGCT  not fulfilled
14  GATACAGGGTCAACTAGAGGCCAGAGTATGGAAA      fulfilled
15  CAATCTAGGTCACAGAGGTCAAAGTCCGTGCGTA      fulfilled
